Test: Primary qHTS for inhibitors of La Crosse Virus (LACV) - induced cell death in SH-SY5Y cells (AID 1508616);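 further: top concentration of the series differs between compounds; higher means more rescue of cells from virus-induced death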
Conditions: SH-SY5Y LACV cytopathicity rescue, ATP luminescence, 6 d; series mostly up to 4.29 µM
Records with an inconclusive call do not appear. The source made the active and inactive calls. The call rests on the fitted dose curve; in most records, active means well fitted inhibition curve with a large enough effect; inconclusive means small, poorly fitted or top-dose-only effect; inactive means no such curve, though single readings can be large or run the other way.
parameter: outcome

> print(dat)
                               smiles.string  parameter    result
 1      Clc1ccc(Cn2c(CN3CCCC3)nc3ccccc32)cc1    outcome  inactive
 2              C[N+](C)(C)CCCCCC[N+](C)(C)C    outcome  inactive
 3       CC(=O)CCCCn1c(=O)c2c(ncn2C)n(C)c1=O    outcome  inactive
 4                CCN(CC)CCOC(=O)c1ccc(N)cc1    outcome  inactive
 5  CCN1CCC[C@H]1CNC(=O)c1cc(S(N)(=O)=O)ccc1OC    outcome  inactive
 6                        C[N+](C)(C)CC(=O)O    outcome  inactive
 7               CCN(CC)C(=O)c1ccc(O)c(OC)c1    outcome  inactive
 8  CC(=O)c1ccc(S(=O)(=O)NC(=O)NC2CCCCC2)cc1    outcome  inactive
 9  CN(C)c1cc(NC(=O)CNC(C)(C)C)c(O)c2c1C[C@@H]1C[C@H]3[C@H](N(C)C)C(=O)C(C(N)=O)=C(O)[C@@]3(O)C(=O)C1=C2O    outcome  inactive
10    OC[C@@H](O)[C@H](O)[C@H](O)[C@@H](O)CO    outcome  inactive
11     CCCCC1C(=O)N(c2ccccc2)N(c2ccccc2)C1=O    outcome  inactive
12         O=c1c(-c2ccc(O)cc2)coc2cc(O)ccc12    outcome  inactive
